- TGT: GABAB receptor (Rattus norvegicus, UniProt O88871+Q9Z0U4)
- Sequence (O88871 41-940): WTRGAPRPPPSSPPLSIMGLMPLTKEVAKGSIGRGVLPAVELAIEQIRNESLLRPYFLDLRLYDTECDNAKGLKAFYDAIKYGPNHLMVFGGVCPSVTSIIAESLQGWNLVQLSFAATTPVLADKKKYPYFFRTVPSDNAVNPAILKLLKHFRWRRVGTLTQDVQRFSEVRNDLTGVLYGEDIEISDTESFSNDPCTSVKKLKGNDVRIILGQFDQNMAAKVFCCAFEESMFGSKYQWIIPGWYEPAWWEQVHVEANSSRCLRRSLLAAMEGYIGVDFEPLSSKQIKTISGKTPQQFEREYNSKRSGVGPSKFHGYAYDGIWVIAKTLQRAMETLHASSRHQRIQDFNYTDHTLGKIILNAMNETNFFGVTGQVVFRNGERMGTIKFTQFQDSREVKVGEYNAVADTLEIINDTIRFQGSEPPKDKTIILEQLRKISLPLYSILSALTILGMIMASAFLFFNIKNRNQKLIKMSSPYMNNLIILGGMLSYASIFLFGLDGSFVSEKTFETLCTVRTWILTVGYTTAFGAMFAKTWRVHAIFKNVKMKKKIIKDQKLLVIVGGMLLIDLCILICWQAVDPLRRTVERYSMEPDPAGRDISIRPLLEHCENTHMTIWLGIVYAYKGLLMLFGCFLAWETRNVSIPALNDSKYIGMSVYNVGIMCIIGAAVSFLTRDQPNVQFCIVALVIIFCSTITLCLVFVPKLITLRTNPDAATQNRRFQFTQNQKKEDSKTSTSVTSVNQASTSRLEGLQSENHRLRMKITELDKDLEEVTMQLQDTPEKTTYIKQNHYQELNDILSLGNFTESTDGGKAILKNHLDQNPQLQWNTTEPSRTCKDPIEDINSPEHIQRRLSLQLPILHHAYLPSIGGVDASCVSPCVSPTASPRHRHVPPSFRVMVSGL
- Sequence (Q9Z0U4 17-960 limits assumed): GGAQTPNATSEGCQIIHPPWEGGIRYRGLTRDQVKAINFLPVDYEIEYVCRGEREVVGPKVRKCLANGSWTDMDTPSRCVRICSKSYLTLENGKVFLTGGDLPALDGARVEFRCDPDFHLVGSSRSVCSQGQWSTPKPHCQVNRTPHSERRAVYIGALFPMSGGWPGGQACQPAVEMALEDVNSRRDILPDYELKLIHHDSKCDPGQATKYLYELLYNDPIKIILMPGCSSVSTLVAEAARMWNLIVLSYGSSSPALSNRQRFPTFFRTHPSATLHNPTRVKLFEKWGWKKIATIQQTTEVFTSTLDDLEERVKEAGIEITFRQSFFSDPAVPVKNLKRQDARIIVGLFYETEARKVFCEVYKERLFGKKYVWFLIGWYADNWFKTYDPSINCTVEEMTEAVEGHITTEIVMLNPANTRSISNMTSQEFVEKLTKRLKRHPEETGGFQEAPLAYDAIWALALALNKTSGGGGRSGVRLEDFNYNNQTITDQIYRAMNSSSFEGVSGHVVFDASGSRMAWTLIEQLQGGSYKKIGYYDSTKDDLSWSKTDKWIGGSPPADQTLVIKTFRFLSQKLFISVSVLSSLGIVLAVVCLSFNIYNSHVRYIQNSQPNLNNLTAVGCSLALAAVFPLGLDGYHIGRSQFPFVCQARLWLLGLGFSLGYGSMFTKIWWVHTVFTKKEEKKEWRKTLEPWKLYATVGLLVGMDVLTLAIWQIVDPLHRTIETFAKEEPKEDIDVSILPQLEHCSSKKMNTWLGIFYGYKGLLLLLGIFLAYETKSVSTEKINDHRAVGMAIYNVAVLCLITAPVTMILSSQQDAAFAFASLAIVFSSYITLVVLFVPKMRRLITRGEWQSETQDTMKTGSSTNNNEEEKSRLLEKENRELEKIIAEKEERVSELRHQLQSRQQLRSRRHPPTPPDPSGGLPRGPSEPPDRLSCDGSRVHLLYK
- EXPERIMENT DESCRIPTION: In vitro [35S]GTPγS binding assay in rat cortical membranes
- RUN CONDITIONS: PAM EC50, [35S]GTPγS binding, read-out: In vitro PAM potency
The entries below come with measured EC50 values attached.

> print(dat)
                    structure.smiles.string                                       tgt  value.observed
1  CCOC(=O)N1CCO[C@H](c2cc(C)nc3cc([C@H]4CC[C@H](C(F)(F)F)CC4)nn23)C1  GABAB receptor (Rattus norvegicus, UniProt O88871+Q9Z0U4)      1 to 10 µM
2  Cc1cc([C@H]2CN(C=O)[C@H](C)CO2)n2nc([C@H]3CC[C@H](C(F)(F)F)CC3)cc2n1  GABAB receptor (Rattus norvegicus, UniProt O88871+Q9Z0U4)     0.1 to 1 µM
3  COC(=O)N1CC[C@H](C)[C@H](c2c(C)c(C)nc3cc([C@H]4CC[C@H](C(F)(F)F)CC4)nn23)C1  GABAB receptor (Rattus norvegicus, UniProt O88871+Q9Z0U4)        < 0.1 µM

Continue with the next compound.
q: Request - read-out EC50 | tested on GABAB receptor (Rattus norvegicus, UniProt O88871+Q9Z0U4) | compound Cc1cc([C@]2(C)CCCN(C=O)C2)n2nc([C@H]3CC[C@H](C(F)(F)F)CC3)cc2n1
a: 0.1 to 1 µM

* * *

- TGT: GABAB receptor (Rattus norvegicus, UniProt O88871+Q9Z0U4)
- EXPERIMENT DESCRIPTION: In vitro [35S]GTPγS binding assay in rat cortical membranes
- RUN CONDITIONS: PAM EC50, [35S]GTPγS binding, read-out: In vitro PAM potency
pEC50: −log10 of the molar value.
pEC50 values, listed per item

q: Request - read-out pEC50 | tested on GABAB receptor (Rattus norvegicus, UniProt O88871+Q9Z0U4) | molecule COC(=O)N1CC[C@H](C)[C@H](c2cc(C)nc3cc([C@H]4CC[C@H](C(F)(F)F)CC4)nn23)C1 (racemic) [Example 76]
a: 6.00 to 7.00

q: Note, next up: CCC1CCN(C=O)CC1c1cc(C)nc2cc([C@H]3CC[C@H](C(F)(F)F)CC3)nn12 (some centres unmarked)
a: 6.00 to 7.00

q: Can you check Cc1nc2cc([C@H]3CC[C@H](C(F)(F)F)CC3)nn2c([C@]2(C)CCCN(CC(F)(F)F)C2)c1C next?
a: 6.00 to 7.00

q: Proceed to COC(=O)N1CC[S+]([O-])C(c2cc(C)nc3cc([C@H]4CC[C@H](C(F)(F)F)CC4)nn23)C1 (some centres unmarked)
a: 5.00 to 6.00

q: # iterate: CC(=O)N1CC[C@H](C)[C@H](c2c(C)c(C)nc3cc([C@H]4CC[C@H](C(F)(F)F)CC4)nn23)C1 (racemic)
a: 6.00 to 7.00

* * *

# key: entry, value: EC50
- TGT: GABAB receptor (Rattus norvegicus, UniProt O88871+Q9Z0U4)
- EXPERIMENT DESCRIPTION: In vitro [35S]GTPγS binding assay in rat cortical membranes
- RUN CONDITIONS: PAM EC50, [35S]GTPγS binding, read-out: In vitro PAM potency

// below: answered compounds
> print(dat)
                                   compound  reported.property  value.observed
1  CC(=O)N1CCC[C@@H](c2cc(C)nc3cc([C@H]4CC[C@H](C(F)(F)F)CC4)nn23)C1               EC50     0.1 to 1 µM
2  COC(=O)N1CCC[C@@H](c2c(C)c(C)nc3cc([C@H]4CC[C@H](C(F)(F)F)CC4)nn23)C1               EC50     0.1 to 1 µM
3  Cc1cc([C@H]2CN(C=O)CC[C@H]2C)n2nc([C@H]3CC[C@H](C(F)(F)F)CC3)cc2n1 (single isomer, unassigned)               EC50        < 0.1 µM
4  COC(=O)N1CCS(=O)(=O)[C@@H](c2cc(C)nc3cc([C@H]4CC[C@H](C(F)(F)F)CC4)nn23)C1               EC50         ≥ 10 µM

q: Item: Cc1nc2cc([C@H]3CC[C@H](C(F)(F)F)CC3)nn2c([C@@H]2CN(C(=N)N)CC[C@@H]2C)c1C (racemic) Test system: GABAB receptor (Rattus norvegicus, UniProt O88871+Q9Z0U4) Read-out: EC50 Value: ?
a: 0.1 to 1 µM

q: Follow-up item: COC(=O)N1CCSC(c2cc(C)nc3cc([C@H]4CC[C@H](C(F)(F)F)CC4)nn23)C1 (some centres unmarked)
a: 0.1 to 1 µM

q: Another compound to look at: Cc1cc([C@H]2CN(S(N)(=O)=O)CCO2)n2nc([C@H]3CC[C@H](C(F)(F)F)CC3)cc2n1
a: < 0.1 µM

q: And CC(=O)N1CCO[C@@H](c2cc(C)nc3cc([C@H]4CC[C@H](C(F)(F)F)CC4)nn23)C1 ?
a: 0.1 to 1 µM

q: Would you kindly repeat that for COC(=O)N1CC[C@@H](C)[C@H](c2cc(C)nc3c(F)c([C@H]4CC[C@H](C(F)(F)F)CC4)nn23)C1 ?
a: 1 to 10 µM

q: Item: Cc1cc([C@@H]2CCCOC2)n2nc([C@H]3CC[C@H](C(F)(F)F)CC3)cc2n1 (single isomer, unassigned)
a: 0.1 to 1 µM

q: Next up: Cc1cc([C@H]2CN(C(=O)c3cncs3)CCO2)n2nc([C@H]3CC[C@H](C(F)(F)F)CC3)cc2n1
a: 0.1 to 1 µM

* * *

- TGT: GABAB receptor (Rattus norvegicus, UniProt O88871+Q9Z0U4)
- EXPERIMENT DESCRIPTION: In vitro [35S]GTPγS binding assay in rat cortical membranes
- RUN CONDITIONS: PAM EC50, [35S]GTPγS binding, read-out: In vitro PAM potency
REPORTED PROPERTY: EC50

q: # get_value(readout='EC50', item= COC(=O)N1C[C@@H](c2cc(C)nc3cc([C@H]4CC[C@H](C(F)(F)F)CC4)nn23)O[C@@H](C)C1 )
a: ≥ 10000 nM

q: And for Cc1cc(C2CCCN(C)C2=O)n2nc([C@H]3CC[C@H](C(F)(F)F)CC3)cc2n1 (stereo partly shown) ?
a: 1000 to 10000 nM

q: Now the compound CNC(=O)N1CCO[C@@H](c2cc(C)nc3cc([C@H]4CC[C@H](C(F)(F)F)CC4)nn23)C1
a: 100 to 1000 nM

q: Same read-out for CCc1c(C)nc2cc([C@H]3CC[C@H](C(F)(F)F)CC3)nn2c1[C@@H]1CCCN(C(=O)OC)C1 ?
a: 100 to 1000 nM

* * *

pEC50 values, listed per item
- TGT: GABAB receptor (Rattus norvegicus, UniProt O88871+Q9Z0U4)
- Construct: from tissue; host or cells: rat brain cortex membranes
- EXPERIMENT DESCRIPTION: In vitro [35S]GTPγS binding assay in rat cortical membranes
- Assay type: biochemical
- RUN CONDITIONS: PAM EC50, [35S]GTPγS binding, read-out: In vitro PAM potency
pEC50: −log10 of the molar value.

Sample answers from the record:
> print(dat)
                                   compound  reported.property  value.observed
1  Cc1cc(C2CN(C=O)CCO2)n2nc([C@H]3CC[C@H](C(F)(F)F)CC3)cc2n1 (some centres unmarked)              pEC50    6.00 to 7.00
2  CC(=O)N1CC[C@@H](C)[C@@H](c2cc(C)nc3c(F)c([C@H]4CC[C@H](C(F)(F)F)CC4)nn23)C1 (single isomer, unassigned)              pEC50    5.00 to 6.00
3  Cc1cc([C@@H]2CN(C=O)CCO2)n2nc([C@H]3CC[C@H](C(F)(F)F)CC3)cc2n1              pEC50    5.00 to 6.00
4  COC(=O)N1CC[C@@H](C)[C@@H](c2cc(C)nc3cc([C@H]4CC[C@H](C(F)(F)F)CC4)nn23)C1 (single isomer, unassigned)              pEC50    6.00 to 7.00
5  CCc1c(C)nc2cc([C@H]3CC[C@H](C(F)(F)F)CC3)nn2c1[C@H]1CCCN(C(C)=O)C1              pEC50          > 7.00

q: What measured pEC50 is associated with Cc1cc([C@H]2CN(C=O)CC[C@@H]2C)n2nc([C@H]3CC[C@H](C(F)(F)F)CC3)cc2n1 on GABAB receptor (Rattus norvegicus, UniProt O88871+Q9Z0U4)?
a: > 7.00

q: Query COC(=O)N1C[C@H](C)O[C@@H](c2cc(C)nc3cc([C@H]4CC[C@H](C(F)(F)F)CC4)nn23)C1 next
a: 6.00 to 7.00

q: Request: COC(=O)N1CCO[C@H](c2cc(C)nc3c(F)c([C@H]4CC[C@H](C(F)(F)F)CC4)nn23)C1
a: 6.00 to 7.00

q: Cc1cc([C@H]2CN(C(=O)c3cocn3)CCO2)n2nc([C@H]3CC[C@H](C(F)(F)F)CC3)cc2n1 ?
a: 6.00 to 7.00

q: Same question, Cc1nc2cc([C@H]3CC[C@H](C(F)(F)F)CC3)nn2c([C@]2(C)CCCN(CC(N)=O)C2)c1C this time
a: 5.00 to 6.00

q: Again, but for Cc1cc([C@]2(C)CCCN(C(=N)N)C2)n2nc([C@H]3CC[C@H](C(F)(F)F)CC3)cc2n1
a: 5.00 to 6.00

q: Ok, now Cc1cc(C2OCCN(C)C2=O)n2nc([C@H]3CC[C@H](C(F)(F)F)CC3)cc2n1 (some centres unmarked)
a: 5.00 to 6.00

q: Same thing, different compound: Cc1cc([C@H]2CCCN(C=O)[C@H]2C)n2nc([C@H]3CC[C@H](C(F)(F)F)CC3)cc2n1 (racemic)
a: 6.00 to 7.00

q: Same read-out for COC(=O)N1CC[C@H](C)[C@@H](c2cc(C)nc3cc([C@H]4CC[C@H](C(F)(F)F)CC4)nn23)C1 (single isomer, unassigned) [Example 4] ?
a: 6.00 to 7.00
